Target: UniProt:P35367
Sequence (P35367 whole entry): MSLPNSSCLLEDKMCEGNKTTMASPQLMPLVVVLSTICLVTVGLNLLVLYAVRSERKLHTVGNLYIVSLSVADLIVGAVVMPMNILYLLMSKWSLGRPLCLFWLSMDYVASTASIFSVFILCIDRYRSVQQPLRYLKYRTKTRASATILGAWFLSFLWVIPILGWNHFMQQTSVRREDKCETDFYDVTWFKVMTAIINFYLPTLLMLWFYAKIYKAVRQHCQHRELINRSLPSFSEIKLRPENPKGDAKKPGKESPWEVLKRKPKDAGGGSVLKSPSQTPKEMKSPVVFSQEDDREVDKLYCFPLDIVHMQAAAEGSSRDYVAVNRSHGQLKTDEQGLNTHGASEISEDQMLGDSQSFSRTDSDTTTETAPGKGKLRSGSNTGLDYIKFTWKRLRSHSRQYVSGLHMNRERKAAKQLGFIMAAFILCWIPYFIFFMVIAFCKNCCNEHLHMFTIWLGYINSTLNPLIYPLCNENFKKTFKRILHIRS
pKi: −log10 of the molar value.
outcomeMeasure: pKi

compound	recordedResult
Cn1cncc1[C@](O)(COc1ccc(C#N)cc1-c1ccc(OC(F)(F)F)cc1)c1ccc(C#N)cc1 [ABT-100]	5.00

----------
Molecular target: L-type calcium channel (verapamil site) (Homo sapiens, UniProt O60840+Q01668+Q13698+Q13936)
Assay: Ca2+ channel (L verapamil site) Ligand binding assay
Format: protein assay
Conditions: compound concentration 3 uM

compoundStructure	inhibition at 3 µM
Cn1cncc1[C@](O)(COc1ccc(C#N)cc1-c1ccc(OC(F)(F)F)cc1)c1ccc(C#N)cc1	37% (not active)

----------
Biological target: sodium channel (site 2) (Homo sapiens, UniProt P35498+P35499+Q01118+Q14524+Q15858+Q99250+Q9NY46+Q9UI33+Q9UQD0+Q9Y5Y9)
Test: Na+ channel (site 2) Ligand binding assay
Format: protein assay
Settings: compound concentration 10 uM

compoundStructure	inhibition at 10 µM, %
Cn1cncc1[C@](O)(COc1ccc(C#N)cc1-c1ccc(OC(F)(F)F)cc1)c1ccc(C#N)cc1	58

Data origin: ChEMBL document CHEMBL4507257
